GI50 overview
# System: human lymphoma cell line RAMOS cells
# Test summary: Cell growth inhibition test using RAMOS cell, ATP assay (CellTiter-Glo)
# Format: cell-based
# Conditions: Homo sapiens, Ramos, 72 h, cultured 3 days, 50% growth inhibition concentration
Measured metric: GI50 (nM)

1) CCOc1ccc(Cl)cc1C(=O)NCC(C)(C)CC(=O)Nc1c(CC(N)=O)n(C)n(-c2ccccc2)c1=O ... 120
2) CCc1c(NC(=O)CC(C)(C)CNC(=O)c2cc(Cl)ccc2OCOC)c(=O)n(-c2ccccc2)n1C ... 130
3) COCc1cc2cc(Cl)cc(C(=O)NCC(C)(C)CC(=O)Nc3c(CCN(C)C)n(C)n(-c4ccccc4)c3=O)c2o1 ... 570
4) CCOc1ccc(Cl)cc1NC(=O)CC1(CC(=O)Nc2c(CCN(C)C)n(C)n(-c3ccccc3)c2=O)CCCC1 ... 1300
5) CCOc1ccc(Cl)cc1C(=O)NCC(C)(C)CC(=O)Nc1c([C@H](C)CN(C)C)n(C)n(-c2ccccc2)c1=O ... 140
6) CCOc1ccc(Cl)cc1C(=O)NCC(C)(C)CC(=O)Nc1c(C(C)(C)CN(C)C)n(C)n(-c2ccccc2)c1=O ... 170
7) CCOc1ccc(Cl)cc1C(=O)NCC(C)(C)CC(=O)Nc1c(CCNCC(F)(F)F)n(C)n(-c2ccccc2)c1=O ... 130
8) CCOc1ccc(Cl)cc1C(=O)NCC(C)(C)CC(=O)Nc1c(C[C@H](C)N(C)C)n(C)n(-c2ccccc2)c1=O ... 140
9) CN(C)CCc1c(NC(=O)CC(C)(C)CNC(=O)c2cc(Cl)cc3c2OCCO3)c(=O)n(-c2ccccc2)n1C ... 570
10) CCOc1ccc(Cl)cc1C(=O)NCC(C)(C)CC(=O)Nc1c(CCCCO)n(C)n(-c2ccccc2)c1=O ... 64
11) CCOc1cc(F)c(Cl)cc1C(=O)NCC(C)(C)CC(=O)Nc1c(CCN(C)CC(F)(F)F)n(C)n(-c2ccccc2)c1=O ... 210
12) CCOc1ncc(Cl)cc1NC(=O)CC(C)(C)CC(=O)Nc1c(COC)n(C)n(-c2ccccc2)c1=O ... 640
13) COCOc1ccc(Cl)cc1C(=O)NCC(C)(C)CC(=O)Nc1c(COC)n(C)n(-c2ccccc2)c1=O ... 130
14) Cc1cc2cc(Cl)cc(C(=O)NCC(C)(C)CC(=O)Nc3c(CCN(C)C)n(C)n(-c4ccccc4F)c3=O)c2o1 ... 470
